Data credit: patent US20240228489A1

# tested_target: human mAChR M1 (Homo sapiens, UniProt P11229)
# Sequence (P11229 whole entry): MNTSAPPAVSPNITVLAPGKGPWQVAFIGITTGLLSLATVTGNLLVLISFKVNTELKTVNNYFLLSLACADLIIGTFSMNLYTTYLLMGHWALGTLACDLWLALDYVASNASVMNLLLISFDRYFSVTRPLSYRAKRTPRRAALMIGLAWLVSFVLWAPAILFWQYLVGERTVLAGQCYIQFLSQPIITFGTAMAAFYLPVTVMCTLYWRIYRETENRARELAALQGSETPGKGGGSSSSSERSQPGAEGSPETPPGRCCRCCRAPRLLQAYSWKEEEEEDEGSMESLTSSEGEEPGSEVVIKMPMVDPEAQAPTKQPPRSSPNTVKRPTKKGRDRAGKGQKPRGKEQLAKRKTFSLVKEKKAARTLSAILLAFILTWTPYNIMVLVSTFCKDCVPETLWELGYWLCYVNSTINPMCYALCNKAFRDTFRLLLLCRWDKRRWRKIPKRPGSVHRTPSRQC
# measurement_notes: mAChR M1 cell-based functional assay (calcium mobilization), agonist mode: compound alone, Emax relative to acetylcholine maximum
# conditions: human mAChR M1
pEC50: −log10 of the molar value.
measure: pEC50

compound | measure | val
[2H]C([2H])([2H])Oc1ccc(-c2ccc(CN3C(=O)c4cccnc4C3([2H])[2H])c(F)c2)c2cn(C)nc12 [Compound 107] | pEC50 | 5.26
[2H]C([2H])([2H])Oc1cnc2c(c1)C(=O)N(Cc1ccc(-c3ccc(OC)c4nn(C)cc34)cc1F)C2([2H])[2H] [Compound 142] | pEC50 | 5.22
[2H]C1([2H])c2ncccc2C(=O)N1Cc1c(F)cc(-c2ccc(OC3CCOCC3)c3nn(C)cc23)cc1F [Compound 140] | pEC50 | 5.09
[2H]C1([2H])c2ncccc2C(=O)N1Cc1c(C)cc(-c2ccnc3nn(C)cc23)cc1F [Compound 201] | pEC50 | 5.28
[2H]C1([2H])c2ncccc2C(=O)N1Cc1c(F)cc(-c2ccc(OCC3(C#N)CC3)c3nn(C)cc23)cc1F [Compound 174] | pEC50 | 5.09
[2H]C1([2H])c2ncccc2C(=O)N1Cc1ccc(-c2cccc3nn(C)cc23)cc1C [Compound 29] | pEC50 | 5.10
[2H]C1([2H])c2ncccc2C(=O)N1Cc1ccc(-c2ccc(C)c3nn(C)cc23)cc1F [Compound 28] | pEC50 | 5.20
[2H]C1([2H])c2ncc(O)cc2C(=O)N1Cc1c(F)cc(-c2cccc3nn(C)cc23)cc1F [Compound 62] | pEC50 | 5.36
[2H]C1([2H])c2ncccc2C(=O)N1Cc1c(C)cc(-c2ccc(OC)c3nn(C([2H])([2H])[2H])cc23)cc1F [Compound 159] | pEC50 | 5.20
